Values from patent US20220259295A1

# Study Target: T1, murine protease nexin-1 (murine, UniProt Q07235 20-397)
# T1 sequence (looked up): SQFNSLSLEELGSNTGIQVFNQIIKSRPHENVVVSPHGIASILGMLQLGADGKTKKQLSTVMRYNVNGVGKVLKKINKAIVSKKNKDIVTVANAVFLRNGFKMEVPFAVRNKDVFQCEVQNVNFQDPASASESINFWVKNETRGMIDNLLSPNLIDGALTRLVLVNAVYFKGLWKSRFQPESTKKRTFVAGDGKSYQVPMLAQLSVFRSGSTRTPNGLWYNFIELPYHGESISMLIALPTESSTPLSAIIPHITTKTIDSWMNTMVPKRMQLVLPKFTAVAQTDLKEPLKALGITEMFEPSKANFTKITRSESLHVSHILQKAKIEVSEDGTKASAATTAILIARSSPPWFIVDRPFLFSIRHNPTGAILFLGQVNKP
# Experiment Notes: cell-based or functional assay
Assay Metric: IC50 (thrombin activity assay, 10 nM PN-1, 1 nM thrombin) (µM)
Reply with just the number (in µM).

Recorded result, F06 (VHH, Monovalent VHH from the synthetic hs2dAb library; His-tagged, detected by anti-cMyc or anti-6xHis; also called VHH F06; single domain antibody F06; not shown: cMyc tag and 6xHis tag (pHEN2 vector)) VHH: EVQLQASGGGFVQPGGSLRLSCAASGDTWSLEIMGWFRQAPGKEREFVSAISSEDGWHAYYADSVKGRFTISRDNSKNTVYLQMNSLRAEDTATYYCAKIENWIQAVEGEMSDYWGQGTQVTVSS , IC50 (thrombin activity assay, 10 nM PN-1, 1 nM thrombin): 0.56

IC50 (thrombin activity assay, 10 nM PN-1, 1 nM thrombin) measured on A08 (VHH, Monovalent VHH from the synthetic hs2dAb library; His-tagged, detected by anti-cMyc or anti-6xHis; also called VHH A08; single domain antibody A08; not shown: cMyc tag and 6xHis tag (pHEN2 vector)) VHH: EVQLQASGGGFVQPGGSLRLSCAASGYYSYSSTMGWFRQAPGKEREFVSAISFYSDMAHYYADSVKGRFTISRDNSKNTVYLQMNSLRAEDTATYYCAAFSKLGKIKYWGQGTQVTVSS = 2.88
